Numbers sourced from ChEMBL document CHEMBL1201862.

Tested on: SNB-75
Test: NCI tumour cell line growth inhibition, 48 h
The source made the active and inactive calls. Cut-off read from the data, not from the text of the source: active = GI50 up to about 1.1 µM and inactive = higher.
Response enum: active, inactive

Worked examples, 5 compounds total:
QUERY: Recorded test outcome, item Cc1cc2c([N+](=O)[O-])cc3c(c2o1)C(=O)C=CC3=O
RESULT: inactive

QUERY: // outcome(item) with item = Brc1ccccc1/C=N\C12CC3CC(CC(C3)C1)C2
RESULT: inactive

QUERY: Could you please tell me the result logged for CCCCCC[C@@H]1CCC2C(CO)[C@@H](O)CC[C@@H]2C1 (stereo partly specified) in this assay?
RESULT: inactive

QUERY: Hi, do you know how CCCC(=O)Nc1cc(/C=C/C(=O)N2C[C@@H]3C[C@]34C2=CC(=O)c2[nH]cc(C)c24)n(C)c1 came out in this test?
RESULT: active

QUERY: Check the results log: what was the call for CN(C)CCCc1cccc2[nH]c3c(c12)CN(C)CC3 ?
RESULT: inactive

Further cases:
QUERY: Entry CN(C)CCC(/C=C/c1ccccc1)=N\Nc1ccc(Cl)c(Cl)c1 : call = ?
RESULT: inactive

QUERY: What call does the record list for Cc1nc2ccccc2[s+]c1-c1cnc(NC#N)nc1C(=O)Nc1cccc(Cl)c1 ?
RESULT: inactive

QUERY: How was O=C(CCNC(=O)OCc1ccccc1)OCCCNC(=O)OCc1ccccc1 classified in this test?
RESULT: inactive

QUERY: Look up the recorded call for Cc1c(Cl)cccc1NC(=O)/C(Cl)=C(\Cl)C(=O)O in this test.
RESULT: inactive

QUERY: Entry COc1cccc(CC(C)NCC(O)c2ccc(O)c(O)c2)c1 (stereo unspecified) : call = ?
RESULT: inactive

QUERY: State the result this test recorded for Brc1ccc(-c2[nH]c3ccccc3c2/N=N\c2ccccc2)cc1 .
RESULT: inactive

---

# key: entry, value: GI50
System: MDA-MB-231
Experiment: NCI tumour cell line growth inhibition, 48 h
The source made the active and inactive calls. Rule as the data show it: active = GI50 up to about 1.1 µM and inactive = higher.

Examples with answers:
QUERY: Tell me its GI50 given FC(F)(F)c1ccc(C2=N/S(c3ccccc3)=N\C(c3ccc(C(F)(F)F)cc3)=N/S(c3ccccc3)=N\2)cc1 (configuration not stated) as the entry.
RESULT: > 100 µM (inactive)

QUERY: Tell me measured GI50 for CC(=O)c1c(-c2ccc(Cl)cc2)c(C#N)c(=S)n(C2OC(CO)C(O)C(O)C2O)c1C (configuration not stated) please.
RESULT: 37 µM (inactive)

QUERY: Return reported GI50. Input compound: c1ccc2c[n+](Cc3ccnc4ccccc34)ccc2c1
RESULT: > 100 µM (inactive)

QUERY: Entry CC(C)(C)OC(=O)NC(C)(C)C(=O)NCCC(=O)O needs its GI50 filled in; supply it.
RESULT: > 100 µM (inactive)

QUERY: Give recorded GI50. CC(C)(CO)CNc1cc(Cl)nc(N)n1
RESULT: > 100 µM (inactive)

QUERY: Return reported GI50. Input compound: C/C=C\C(CC(=O)NCC(=O)c1c[nH]c2ccccc12)CC(=O)OC (configuration not stated)
RESULT: > 100 µM (inactive)

---
QUERY: Please indicate GI50 recorded for O=C1C2CC(Cl)C(SSC3CC4C(=O)N(SC(Cl)(Cl)C(Cl)Cl)C(=O)C4CC3Cl)CC2C(=O)N1SC(Cl)(Cl)C(Cl)Cl (configuration not stated)
RESULT: 1.54 µM (inactive)

QUERY: Give me measured GI50, please, for this compound: NC1CC(=O)c2c(I)sc(I)c21 (configuration not stated)
RESULT: 20 µM (inactive)
